Assayed system: Factor X, P00742
Sequence (P00742 whole entry, looked up): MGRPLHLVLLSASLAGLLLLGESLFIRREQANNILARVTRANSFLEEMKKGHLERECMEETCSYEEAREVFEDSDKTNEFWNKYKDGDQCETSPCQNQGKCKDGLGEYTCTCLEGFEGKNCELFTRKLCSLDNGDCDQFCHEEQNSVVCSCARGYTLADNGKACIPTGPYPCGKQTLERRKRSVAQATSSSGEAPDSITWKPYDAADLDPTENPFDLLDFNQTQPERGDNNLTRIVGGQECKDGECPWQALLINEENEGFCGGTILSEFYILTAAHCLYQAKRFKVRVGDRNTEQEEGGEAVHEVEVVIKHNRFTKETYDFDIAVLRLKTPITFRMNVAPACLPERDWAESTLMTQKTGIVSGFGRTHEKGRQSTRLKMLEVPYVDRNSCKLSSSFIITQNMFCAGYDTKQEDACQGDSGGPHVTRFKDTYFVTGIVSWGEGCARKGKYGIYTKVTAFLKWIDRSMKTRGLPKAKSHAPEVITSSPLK
Measured endpoint: kcat/KM (M⁻¹ s⁻¹)
Quick reminder: number only, in M⁻¹ s⁻¹, skip the unit.

Sample FIXa-R318Y/R338E/E410N/T412V (protein) chain 1: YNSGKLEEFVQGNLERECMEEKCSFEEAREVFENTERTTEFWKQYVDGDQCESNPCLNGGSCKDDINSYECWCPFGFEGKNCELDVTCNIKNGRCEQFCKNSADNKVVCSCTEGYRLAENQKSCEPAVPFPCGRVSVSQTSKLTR chain 2: VVGGEDAKPGQFPWQVVLNGKVDAFCGGSIVNEKWIVTAAHCVETGVKITVVAGEHNIEETEHTEQKRNVIRIIPHHNYNAAINKYNHDIALLELDEPLVLNSYVTPICIADKEYTNIFLKFGSGYVSGWGRVFHKGYSALVLQYLRVPLVDRATCLESTKFTIYNNMFCAGFHEGGRDSCQGDSGGPHVTEVEGTSFLTGIISWGEECAMKGKYGIYTKVSRYVNWIKNKVKLT — what was its kcat/KM?
2.4e+08

Provenance of the data: patent US20210238260
